Readings of activation at 0.1 µM for the listed molecules
# TEST_TARGET: GABAA receptors (α5β2γ2) (Homo sapiens, UniProt P18507+P31644)
# Construct: expressed in transfected cells
# Sequence (P31644 32-462): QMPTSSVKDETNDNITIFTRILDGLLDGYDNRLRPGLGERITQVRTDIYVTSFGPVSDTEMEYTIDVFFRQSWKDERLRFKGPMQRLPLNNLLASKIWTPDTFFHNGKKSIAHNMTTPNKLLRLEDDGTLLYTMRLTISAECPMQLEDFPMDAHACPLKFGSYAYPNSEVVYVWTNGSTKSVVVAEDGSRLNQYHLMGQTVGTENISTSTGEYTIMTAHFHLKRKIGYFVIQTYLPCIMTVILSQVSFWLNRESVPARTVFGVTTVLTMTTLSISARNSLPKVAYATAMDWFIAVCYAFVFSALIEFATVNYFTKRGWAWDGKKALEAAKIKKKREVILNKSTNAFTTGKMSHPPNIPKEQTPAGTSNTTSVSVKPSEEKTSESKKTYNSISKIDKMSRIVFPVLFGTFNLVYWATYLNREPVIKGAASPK
# Sequence (P47870 25-512 partner limits assumed): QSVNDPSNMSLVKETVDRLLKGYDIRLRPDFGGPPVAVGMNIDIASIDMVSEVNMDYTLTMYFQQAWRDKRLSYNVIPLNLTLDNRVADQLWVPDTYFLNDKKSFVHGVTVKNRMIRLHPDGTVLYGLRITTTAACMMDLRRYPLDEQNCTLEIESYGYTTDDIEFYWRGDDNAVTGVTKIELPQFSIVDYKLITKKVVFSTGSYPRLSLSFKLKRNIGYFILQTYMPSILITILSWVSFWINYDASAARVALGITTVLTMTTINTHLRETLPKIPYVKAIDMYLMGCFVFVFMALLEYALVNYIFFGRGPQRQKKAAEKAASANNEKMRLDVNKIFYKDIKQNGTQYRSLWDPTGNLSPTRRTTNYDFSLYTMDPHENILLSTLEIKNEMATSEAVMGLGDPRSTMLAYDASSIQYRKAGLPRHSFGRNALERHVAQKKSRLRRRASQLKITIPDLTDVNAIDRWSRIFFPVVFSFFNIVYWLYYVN
# Sequence (P18507 40-475): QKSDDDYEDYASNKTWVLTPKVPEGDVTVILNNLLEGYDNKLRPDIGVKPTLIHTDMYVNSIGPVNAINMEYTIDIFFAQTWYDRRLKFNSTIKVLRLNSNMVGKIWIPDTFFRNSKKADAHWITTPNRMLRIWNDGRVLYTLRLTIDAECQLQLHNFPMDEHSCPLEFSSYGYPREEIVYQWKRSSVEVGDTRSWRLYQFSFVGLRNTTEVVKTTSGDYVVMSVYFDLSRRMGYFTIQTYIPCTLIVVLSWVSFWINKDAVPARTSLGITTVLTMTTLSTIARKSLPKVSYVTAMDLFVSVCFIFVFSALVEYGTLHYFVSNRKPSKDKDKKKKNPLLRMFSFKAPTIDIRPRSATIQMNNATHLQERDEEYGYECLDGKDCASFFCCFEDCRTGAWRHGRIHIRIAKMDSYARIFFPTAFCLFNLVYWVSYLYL
# MEASUREMENT_NOTES: Positive allosteric modulator activity: potentiation of EC20 GABA current in oocytes
# Assay type: cell-based
# STATED_CONDITIONS: read-out: GABA α5 functional potentiation

Please review the entries below; each comes with its answer.
- COCc1nnc2n1Cc1c(-c3noc(C(C)C)n3)ncn1-c1ccc(F)cc1-2: > 50%
- COCc1nnc2n1Cc1c(-c3nc(C(C)C)no3)ncn1-c1ccc(OC)cc1-2: 20 to 49%
- COc1ccc2c(c1)-n1nnc(COc3ccc(F)cc3)c1Cc1c(C#N)ncn1-2: 20 to 49%
- CC(C)c1nc(-c2ncn3c2Cn2c(COc4ccc(F)cc4)nnc2-c2cc(F)ccc2-3)no1: 20 to 49%
- COc1ccc2c(c1)-c1nnc(COc3ccccc3)n1Cc1c(-c3noc(C(C)C)n3)ncn1-2: > 50%
- COc1ccc2c(c1)-c1nnc(COCc3cccc(F)c3)n1Cc1c(-c3noc(C(C)C)n3)ncn1-2: 20 to 49%
- COc1ccc2c(c1)-n1nnc(COc3ccccc3)c1Cc1c(C#N)ncn1-2: 20 to 49%

Notebook: pull reported activation at 0.1 µM for GABAA receptors (α5β2γ2) (Homo sapiens, UniProt P18507+P31644), entry `Cc1noc(-c2ncn3c2Cc2c(Cc4ccccc4)nnn2-c2cc(F)ccc2-3)n1`
20 to 49%

====

# TEST_TARGET: GABAA receptors (α5β2γ2) (Homo sapiens, UniProt P18507+P31644)
# Construct: expressed in transfected cells
# MEASUREMENT_NOTES: Positive allosteric modulator activity: potentiation of EC20 GABA current in oocytes
# Format: cell-based
# STATED_CONDITIONS: read-out: GABA α5 functional potentiation
Readings of activation at 0.1 µM for the listed molecules

• COCc1nnc2n1Cc1c(C3=NCCO3)ncn1-c1ccc(Cl)cc1-2 = 20 to 49%
• Cc1nnn2c1Cc1c(-c3nc(C(C)C)no3)ncn1-c1ccccc1-2 = 20 to 49%
• COc1ccc2c(c1)-n1nnc(COc3cccc(Br)c3)c1Cc1c(C#N)ncn1-2 = 20 to 49%
• CC(C)c1nc(-c2ncn3c2Cn2c(COc4cccc(F)c4)nnc2-c2cc(F)ccc2-3)no1 = 20 to 49%
• Cc1nc(-c2ncn3c2Cn2c(COc4ccccc4)nnc2-c2cc(F)ccc2-3)no1 = 20 to 49%
• CCc1nc(-c2ncn3c2Cc2c(Cc4ccccc4)nnn2-c2cc(OC)ccc2-3)no1 = > 50%
• COc1ccc2c(c1)-c1nnc(COc3ccccc3F)n1Cc1c(-c3noc(C(C)C)n3)ncn1-2 = > 50%
• COc1ccc2c(c1)-n1nnc(COc3ccccc3F)c1Cc1c(-c3noc(C)n3)ncn1-2 = 20 to 49%

Return reported activation at 0.1 µM; argument: `COc1ccc2c(c1)-n1nncc1Cc1c(C3=N[C@H](c4ccccc4)CO3)ncn1-2`
20 to 49%

Return reported activation at 0.1 µM; argument: `Cc1nnn2c1Cc1c(C(=O)OCC(F)(F)F)ncn1-c1ccc(F)cc1-2`
> 50%

Return reported activation at 0.1 µM; argument: `CCOC(=O)c1ncn2c1Cc1c(C)nnn1-c1cc(OC)ccc1-2`
20 to 49%

Return reported activation at 0.1 µM; argument: `CCOC(=O)c1ncn2c1Cc1c(CN3CCCC3)nnn1-c1cc(OC)ccc1-2`
20 to 49%

Return reported activation at 0.1 µM; argument: `COc1ccc2c(c1)-n1nnc(COc3ccccc3)c1Cc1c(-c3noc(C)n3)ncn1-2`
20 to 49%

Return reported activation at 0.1 µM; argument: `CC(C)c1nc(-c2ncn3c2Cn2c(COc4ccccc4)nnc2-c2cc(F)ccc2-3)no1`
20 to 49%

Return reported activation at 0.1 µM; argument: `C#Cc1ncn2c1Cn1c(COC)nnc1-c1cc(Cl)ccc1-2`
20 to 49%

Return reported activation at 0.1 µM; argument: `CCOC(=O)c1ncn2c1Cn1c(COc3ccccc3)nnc1-c1cc(F)ccc1-2`
20 to 49%

Return reported activation at 0.1 µM; argument: `COc1ccc2c(c1)-n1nncc1Cc1c(-c3nc(C(C)C)no3)ncn1-2`
20 to 49%

Return reported activation at 0.1 µM; argument: `CCOCc1nnc2n1Cc1c(C3=N[C@H](c4ccccc4)CO3)ncn1-c1ccc(Cl)cc1-2`
> 50%

Return reported activation at 0.1 µM; argument: `CC(C)c1nc(-c2ncn3c2Cn2c(COc4cccnc4)nnc2-c2cc(F)ccc2-3)no1`
> 50%

Return reported activation at 0.1 µM; argument: `COc1ccc2c(c1)-c1nnc(COc3ccccc3Cl)n1Cc1c(-c3noc(C(C)C)n3)ncn1-2`
20 to 49%

Return reported activation at 0.1 µM; argument: `CCc1nc(-c2ncn3c2Cc2c(Cc4ccc(F)cc4)nnn2-c2cc(OC)ccc2-3)no1`
20 to 49%

Return reported activation at 0.1 µM; argument: `Cc1noc(-c2ncn3c2Cc2c(C)nnn2-c2cc(F)ccc2-3)n1`
20 to 49%

Return reported activation at 0.1 µM; argument: `CCc1nc(-c2ncn3c2Cn2c(COc4ccccc4)nnc2-c2cc(F)ccc2-3)no1`
20 to 49%
